Measured on: human recombinant P2X7 receptors (Homo sapiens)
Construct: expressed in transfected cells
Sequence (Q99572 whole entry): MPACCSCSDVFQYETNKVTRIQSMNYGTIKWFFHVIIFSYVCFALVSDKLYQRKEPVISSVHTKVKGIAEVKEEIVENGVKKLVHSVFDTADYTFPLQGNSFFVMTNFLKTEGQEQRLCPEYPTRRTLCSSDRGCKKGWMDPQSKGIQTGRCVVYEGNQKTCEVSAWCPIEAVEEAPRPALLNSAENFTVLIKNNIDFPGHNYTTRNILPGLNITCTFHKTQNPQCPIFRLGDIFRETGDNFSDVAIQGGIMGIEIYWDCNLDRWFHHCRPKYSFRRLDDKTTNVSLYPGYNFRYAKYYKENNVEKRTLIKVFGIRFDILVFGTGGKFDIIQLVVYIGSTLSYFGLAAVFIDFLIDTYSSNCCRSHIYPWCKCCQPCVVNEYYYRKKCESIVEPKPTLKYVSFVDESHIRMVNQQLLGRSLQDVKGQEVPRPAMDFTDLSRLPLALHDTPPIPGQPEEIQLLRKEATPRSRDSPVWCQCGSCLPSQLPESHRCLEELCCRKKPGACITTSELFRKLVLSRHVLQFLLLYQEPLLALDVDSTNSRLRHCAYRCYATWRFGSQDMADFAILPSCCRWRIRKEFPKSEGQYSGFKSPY
Procedure details: Ethidium Accumulation Assay 1 (HEK293 cells, ATP-induced ethidium uptake)
Assay type: cell-based
Condition info: HEK293 cells expressing human P2X7; 1 mM ATP; sometimes mean of more than one measurement; read-out: Assay 1 (antagonist pIC50 for blocking ATP responses) (converted)
Property name: IC50

# count of solved cases: 5
O=C(c1ccc(Cl)c(F)c1Cl)N1CCn2c(nnc2-c2ccncn2)C1    < 100 nM
O=C(c1cccc(C(F)(F)F)c1Cl)N1CCn2c(nnc2N2CCCCC2)C1    < 100 nM
Cc1ccc(C(=O)N2CCn3c(nnc3-c3cnccn3)C2)c(C)c1    < 501 nM
O=C(c1ccc(F)cc1Cl)N1CCn2c(nnc2-c2ncc(F)cc2F)C1    < 100 nM
CC(C)(C)c1nnc2n1CCN(C(=O)c1cccc(C(F)(F)F)c1Cl)C2    < 501 nM

Record "O=C(c1ccc(F)c(C(F)(F)F)c1)N1CCn2c(nnc2-c2cnccn2)C1" / human recombinant P2X7 receptors (Homo sapiens), IC50 recorded as < 100 nM
